Give measured activity coefficient for each item. Keep answers brief.
- test: activity coefficient (dimensionless); of the first substance listed, at infinite dilution; xn = mol fraction of the nth substance listed
- assay_context: 343.15 K; Liquid; Chromatography; x1 = 0
Please reply with the value in numeric form only.

State its activity coefficient: CC1CCCCC1 [methylcyclohexane] + CCn1cc[n+](C)c1.F[B-](F)(F)F
51.4

State its activity coefficient: CC(C)=O [acetone] + CCn1cc[n+](C)c1.F[B-](F)(F)F
1.31

State its activity coefficient: CCCCCCC [heptane] + CCn1cc[n+](C)c1.F[B-](F)(F)F
104

State its activity coefficient: CC(C)CC(C)(C)C [2,2,4-trimethylpentane] + CCn1cc[n+](C)c1.F[B-](F)(F)F
101

State its activity coefficient: Cc1ccccc1C [1,2-dimethylbenzene] + CCn1cc[n+](C)c1.F[B-](F)(F)F
4.5

State its activity coefficient: CCc1ccccc1 [ethylbenzene] + CCn1cc[n+](C)c1.F[B-](F)(F)F
5.58

State its activity coefficient: CCOC(C)=O [ethyl acetate] + CCn1cc[n+](C)c1.F[B-](F)(F)F
2.83

State its activity coefficient: C1CCOC1 [tetrahydrofuran] + CCn1cc[n+](C)c1.F[B-](F)(F)F
1.8

State its activity coefficient: CCCCCCCC [octane] + CCn1cc[n+](C)c1.F[B-](F)(F)F
158

State its activity coefficient: CCCCCC [hexane] + CCn1cc[n+](C)c1.F[B-](F)(F)F
77.4

State its activity coefficient: CCCCCCCCC [nonane] + CCn1cc[n+](C)c1.F[B-](F)(F)F
248

State its activity coefficient: CCCCC [pentane] + CCn1cc[n+](C)c1.F[B-](F)(F)F
49

State its activity coefficient: c1ccccc1 [benzene] + CCn1cc[n+](C)c1.F[B-](F)(F)F
2.02

State its activity coefficient: C1COCCO1 [1,4-dioxane] + CCn1cc[n+](C)c1.F[B-](F)(F)F
1.47

State its activity coefficient: ClC(Cl)(Cl)Cl [tetrachloromethane] + CCn1cc[n+](C)c1.F[B-](F)(F)F
4.8

State its activity coefficient: Cc1ccc(C)cc1 [1,4-dimethylbenzene] + CCn1cc[n+](C)c1.F[B-](F)(F)F
4.96

State its activity coefficient: ClC(Cl)Cl [trichloromethane] + CCn1cc[n+](C)c1.F[B-](F)(F)F
1.43

----------
- test: activity coefficient (dimensionless); of the first substance listed, at infinite dilution; xn = mol fraction of the nth substance listed
- assay_context: 303.15 K; Liquid; Chromatography; x1 = 0
measured_metric: activity coefficient
Please reply with the value in numeric form only.

State its activity coefficient: CCCCCC [hexane] + CCn1cc[n+](C)c1.F[B-](F)(F)F
101

State its activity coefficient: CCc1ccccc1 [ethylbenzene] + CCn1cc[n+](C)c1.F[B-](F)(F)F
6.49

State its activity coefficient: C=Cc1ccccc1 [styrene] + CCn1cc[n+](C)c1.F[B-](F)(F)F
3.38

State its activity coefficient: C1CCOC1 [tetrahydrofuran] + CCn1cc[n+](C)c1.F[B-](F)(F)F
1.87

State its activity coefficient: c1ccccc1 [benzene] + CCn1cc[n+](C)c1.F[B-](F)(F)F
2.13

State its activity coefficient: Cc1ccccc1C [1,2-dimethylbenzene] + CCn1cc[n+](C)c1.F[B-](F)(F)F
4.73

State its activity coefficient: CCCCCCC [heptane] + CCn1cc[n+](C)c1.F[B-](F)(F)F
154

State its activity coefficient: CC(C)=O [acetone] + CCn1cc[n+](C)c1.F[B-](F)(F)F
1.23

----------
- test: activity coefficient (dimensionless); of the first substance listed, at infinite dilution; xn = mol fraction of the nth substance listed
- assay_context: 313.15 K; Liquid; Chromatography; x1 = 0
measured_metric: activity coefficient

State its activity coefficient: C1COCCO1 [1,4-dioxane] + CCn1cc[n+](C)c1.F[B-](F)(F)F
1.4

State its activity coefficient: CC(C)=O [acetone] + CCn1cc[n+](C)c1.F[B-](F)(F)F
1.26

State its activity coefficient: c1ccccc1 [benzene] + CCn1cc[n+](C)c1.F[B-](F)(F)F
2.11

State its activity coefficient: CC1CCCCC1 [methylcyclohexane] + CCn1cc[n+](C)c1.F[B-](F)(F)F
79.7

----------
- test: activity coefficient (dimensionless); of the first substance listed, at infinite dilution; xn = mol fraction of the nth substance listed
- assay_context: 333.15 K; Liquid; Chromatography; x1 = 0
measured_metric: activity coefficient
Please reply with the value in numeric form only.

State its activity coefficient: CCCCCCCCC [nonane] + CCn1cc[n+](C)c1.F[B-](F)(F)F
254

State its activity coefficient: CCOC(C)=O [ethyl acetate] + CCn1cc[n+](C)c1.F[B-](F)(F)F
2.87

State its activity coefficient: C=Cc1ccccc1 [styrene] + CCn1cc[n+](C)c1.F[B-](F)(F)F
3.56

State its activity coefficient: CC(C)CC(C)(C)C [2,2,4-trimethylpentane] + CCn1cc[n+](C)c1.F[B-](F)(F)F
112

State its activity coefficient: CC(C)=O [acetone] + CCn1cc[n+](C)c1.F[B-](F)(F)F
1.29
